Tested on: 3T3-L1
Experiment: Down-regulation of […] expression in mouse 3T3L1 cells at 10 uM after 24 hrs by ELISA
Type: functional
Calls of active or inactive are those of the source. The calls are words filed in the database; no cut-off is given here.
Parameter measured: Activity

{"Molecule": "O=C1NC(=O)C(=Cc2ccc(OC3CCN(C(=O)c4ccncc4)CC3)cc2)C(=O)N1", "Tgt": "3T3-L1", "Result": "inactive"}
{"Molecule": "O=C1NC(=O)C(=Cc2ccc(OC3CCN(c4ncccc4C(F)(F)F)CC3)cc2)C(=O)N1", "Tgt": "3T3-L1", "Result": "inactive"}
{"Molecule": "O=C1NC(=O)C(=Cc2ccc(OC3CCN(C(=O)c4cccc(C(F)(F)F)c4)CC3)cc2)C(=O)N1", "Tgt": "3T3-L1", "Result": "inactive"}
{"Molecule": "CN(CCOc1ccc(CC2SC(=O)NC2=O)cc1)c1ccccn1 (centres undefined)", "Tgt": "3T3-L1", "Result": "118.8 pg/mL"}

----------
Tested on: HepG2
Assay: Reduction of glucose consumption in insulin-resistant human HepG2 cells at 10 uM after 24 hrs by glucose oxidase method in presence of 0.1 uM of insulin
Type: functional, cell-based
Calls of active or inactive are those of the source. The rule behind the calls is not given here.
The categories you may choose from are t (active), f (inactive)

Before answering, review these 5 worked examples.
{"Smiles entry": "N#Cc1cccnc1N1CCC(NC(=O)c2ccc(C=C3C(=O)NC(=O)NC3=O)cc2)CC1", "Label class": "f"}
{"Smiles entry": "O=C1NC(=O)C(=Cc2ccc(OC3CCN(C(=O)c4ccc(OC(F)F)cc4)CC3)c(F)c2)C(=O)N1", "Label class": "t"}
{"Smiles entry": "N#Cc1cccnc1N1CCC(Oc2ccc(C=C3C(=O)NC(=O)NC3=O)cc2)CC1", "Label class": "f"}
{"Smiles entry": "O=C1NC(=O)C(=Cc2ccc(C(=O)N3CCC(Nc4ccc([N+](=O)[O-])cn4)CC3)cc2)C(=O)N1", "Label class": "f"}
{"Smiles entry": "O=C1NC(=O)C(=Cc2ccc(OC3CCN(c4ncccc4C(F)(F)F)CC3)cc2)C(=O)N1", "Label class": "t"}

GET /call?item= O=C1NC(=O)C(=Cc2ccc(C(=O)NC3CCN(c4cc([N+](=O)[O-])ccn4)CC3)cc2)C(=O)N1 returns the recorded outcome of this test.
f

Hello, I am checking results. What call was entered for O=C1NC(=O)C(=Cc2ccc(CNC3CCN(c4ccc([N+](=O)[O-])cn4)CC3)cc2)C(=O)N1 ?
f

Hi, do you know how O=C1NC(=O)C(=Cc2ccc(OC3CCN(C(=O)c4ccccn4)CC3)cc2)C(=O)N1 came out in this test?
f

Field: outcome | Entry: O=C1NC(=O)C(=Cc2ccc(OC3CCN(c4ncccc4C(F)(F)F)CC3)c(F)c2)C(=O)N1
f
